- Target: Protein deacetylase HDAC6 (Homo sapiens) (UniProt Q9UBN7)
- Sequence (Q9UBN7 whole entry): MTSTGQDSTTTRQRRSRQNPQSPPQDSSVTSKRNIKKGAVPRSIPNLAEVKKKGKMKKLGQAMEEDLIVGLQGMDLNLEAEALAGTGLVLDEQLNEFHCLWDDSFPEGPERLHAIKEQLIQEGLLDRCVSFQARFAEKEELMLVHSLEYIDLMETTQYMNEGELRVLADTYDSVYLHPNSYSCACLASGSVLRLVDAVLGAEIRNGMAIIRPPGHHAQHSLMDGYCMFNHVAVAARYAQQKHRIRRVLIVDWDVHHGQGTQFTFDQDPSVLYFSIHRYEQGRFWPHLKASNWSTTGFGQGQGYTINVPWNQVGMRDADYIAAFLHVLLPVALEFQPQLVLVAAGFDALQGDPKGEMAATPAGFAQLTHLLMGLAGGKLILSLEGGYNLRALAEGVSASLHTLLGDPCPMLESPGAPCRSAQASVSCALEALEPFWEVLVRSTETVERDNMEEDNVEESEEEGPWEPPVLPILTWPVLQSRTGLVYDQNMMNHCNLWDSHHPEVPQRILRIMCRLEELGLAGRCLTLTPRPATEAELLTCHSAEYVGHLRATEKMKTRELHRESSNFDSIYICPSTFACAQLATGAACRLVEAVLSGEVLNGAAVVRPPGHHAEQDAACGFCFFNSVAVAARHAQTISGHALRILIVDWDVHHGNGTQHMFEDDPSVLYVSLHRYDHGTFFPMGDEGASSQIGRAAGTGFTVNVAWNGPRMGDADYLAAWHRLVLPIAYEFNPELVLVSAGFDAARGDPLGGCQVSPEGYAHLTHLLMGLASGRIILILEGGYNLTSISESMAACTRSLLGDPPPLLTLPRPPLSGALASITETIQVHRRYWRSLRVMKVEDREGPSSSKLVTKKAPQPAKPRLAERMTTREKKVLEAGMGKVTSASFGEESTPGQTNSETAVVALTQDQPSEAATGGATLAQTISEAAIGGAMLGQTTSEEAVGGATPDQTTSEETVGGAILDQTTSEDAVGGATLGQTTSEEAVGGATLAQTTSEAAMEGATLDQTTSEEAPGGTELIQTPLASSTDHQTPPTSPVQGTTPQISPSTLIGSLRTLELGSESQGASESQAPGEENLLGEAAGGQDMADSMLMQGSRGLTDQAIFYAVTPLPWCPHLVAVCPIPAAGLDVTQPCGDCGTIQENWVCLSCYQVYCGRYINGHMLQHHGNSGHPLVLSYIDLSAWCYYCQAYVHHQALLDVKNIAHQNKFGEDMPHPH
- Test context: at 10 µM
Among all 5,600 compounds or so, about 390 (7%) showed an effect of 50% or more. The entries come from a sample that favours strong results as a whole.
# inhibition per record follows
Test readout: inhibition (%)

In [3]: df
Out[3]:
                                   molecule  data_value
0                      O=C(O)CCCCCCCCC(=O)O        0.61
1  N=C(Nc1ccc(I)cc1)NC1C2CC3CC(C2)CC1C3 (centres undefined)        1.97
2  N[C@@]1(C(=O)O)CC[C@H]2[C@H](C(=O)O)[C@H]21        5.51
3               O=C(CCCCCCC(=O)Nc1cccnc1)NO         100
